B1: TOR1AIP2 (parent)
chain: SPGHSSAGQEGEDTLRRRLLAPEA

- Variants of: B1
- Procedure text: protein stability index of a GFP-peptide fusion (GPS, HEK-293T) (PSI 1-6); higher = more stable;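 also: lentivirally expressed fusions sorted by FACS into six bins by GFP to DsRed ratio, PSI derived from sequencing read proportions per bin multiplied by bin number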
- Details: c terminus: a fixed tail appended
Note: every record was labeled by where its protein stability index sits among low end: < 4; middle: ≥ 4 and < 5; high end: ≥ 5

Place this variant in its band: `SPGHSSAGQEGEDTLRRRFLAPEA`
middle

# repeat for `SPGHSSAGQEGEDTLRRRLLAPED`
high end

# repeat for `SPGHSSAGQECEDTLRRRLLAPEA`
low end

# repeat for `SPGHSSAGQEGEDTLVRRLLAPEA`
high end

# repeat for `SPGHSSAGQEKEDTLRRRLLAPEA`
middle

# repeat for `NPGHSSAGQEGEDTLRRRLLAPEA`
low end

# repeat for `SKGHSSAGQEGEDTLRRRLLAPEA`
middle

# repeat for `SPGHSSAGQEGEDTLYRRLLAPEA`
middle

# repeat for `SPGHSSAGQEGEDTLLRRLLAPEA`
middle

# repeat for `SPGHSHAGQEGEDTLRRRLLAPEA`
middle

# repeat for `SPHHSSAGQEGEDTLRRRLLAPEA`
middle

# repeat for `SPGHSSAYQEGEDTLRRRLLAPEA`
low end

# repeat for `SPGHSSAGQEGEDTLRRHLLAPEA`
middle

# repeat for `SPGHSSAGQEGEDTLRRCLLAPEA`
middle

# repeat for `SPGHSSAGQEGTDTLRRRLLAPEA`
low end

# repeat for `SPGHSSAGQEGEDTLRRRMLAPEA`
low end

# repeat for `SPGHSSAFQEGEDTLRRRLLAPEA`
low end

# repeat for `SPGHSSAGSEGEDTLRRRLLAPEA`
middle

# repeat for `SPGHSSAGQEGEDTLRRRALAPEA`
high end

# repeat for `SPPHSSAGQEGEDTLRRRLLAPEA`
middle

# repeat for `SPGHSSAGQEGEDTLRRRLLFPEA`
middle

# repeat for `SPGHISAGQEGEDTLRRRLLAPEA`
low end

# repeat for `SPGHSSAGLEGEDTLRRRLLAPEA`
low end

# repeat for `SYGHSSAGQEGEDTLRRRLLAPEA`
low end

# repeat for `SPGHSSAGQQGEDTLRRRLLAPEA`
low end

# repeat for `SPGHSSAGQYGEDTLRRRLLAPEA`
low end

# repeat for `SPGHSSAGQEGEDTLRRLLLAPEA`
low end

# repeat for `SPGHWSAGQEGEDTLRRRLLAPEA`
middle

# repeat for `SPGHSSAGQEGEDTLRRRLLAPEK`
middle

# repeat for `SPGHSSAGQEGEHTLRRRLLAPEA`
middle

# repeat for `SPGHSSAGQEGEDTLRRRLDAPEA`
middle

# repeat for `SPGHDSAGQEGEDTLRRRLLAPEA`
middle

# repeat for `SPGHSSAGQEGEDTLRRRLQAPEA`
high end

# repeat for `SPGHSSAGQEREDTLRRRLLAPEA`
middle

# repeat for `SPGHSSAGQEGEDTNRRRLLAPEA`
high end

# repeat for `SPGHSSAGQELEDTLRRRLLAPEA`
middle

# repeat for `SPGHSSAGQEGEKTLRRRLLAPEA`
middle

# repeat for `SPGHSSAGQEGIDTLRRRLLAPEA`
low end

# repeat for `SPGHSSAGQEGEDTLRRRHLAPEA`
high end

# repeat for `SPKHSSAGQEGEDTLRRRLLAPEA`
low end

// data source = the supplement of paper PMC10567573
